The entries below are paired with their reported pKd.
Biological target: T1, Human B7-H3 extracellular domain (NCBI Reference Sequence: NM_025240.2) (human, UniProt Q5ZPR3 29-466)
T1 chain: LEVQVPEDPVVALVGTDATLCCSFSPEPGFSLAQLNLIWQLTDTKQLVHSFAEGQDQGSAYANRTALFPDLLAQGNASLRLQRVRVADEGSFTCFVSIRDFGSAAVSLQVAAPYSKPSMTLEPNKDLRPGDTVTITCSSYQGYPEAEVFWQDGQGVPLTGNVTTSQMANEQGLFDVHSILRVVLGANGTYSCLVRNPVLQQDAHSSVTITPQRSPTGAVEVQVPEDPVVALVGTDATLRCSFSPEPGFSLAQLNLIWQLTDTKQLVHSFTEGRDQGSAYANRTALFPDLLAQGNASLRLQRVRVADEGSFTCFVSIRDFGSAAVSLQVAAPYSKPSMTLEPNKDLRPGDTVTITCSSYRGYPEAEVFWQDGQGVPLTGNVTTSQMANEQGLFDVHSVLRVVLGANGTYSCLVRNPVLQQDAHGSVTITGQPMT
Experiment: SPR, Biacore 8K, antibody captured through Fc, B7-H3 ECD as analyte
pKd: −log10 of the molar value.
Value type: pKd

[[record]]
binder = "#27-22 (VH2-2-VL2-2) (antibody, IgG1, V domains shown, Humanized antibody from murine #27; also called #27-VH2-2/VL2-2) VH: QVQLVQSGAEVVKPGASVKVSCKASGYTFTNYWMHWVKQAPGQGLEWIGMIHPNSGAFNYNERFKTRVTITVDKSTSTAYMELSSLRSEDTAVYYCARSTALATGYWGQGTLLTVSS VL: DIQLTQSPSFLSASVGDRVTMTCSASSSVSYMYWYQQKPGKSPKLLIYDTSNLASGVPSRFSGSGSGTEYTLTISSLQPEDFVTYYCQQWSSYPLTFGQGTKLEIK"
value_type = "pKd"
val = 8.90

[[record]]
binder = "#23-5424 (VH5-4-VL2-4) (antibody, IgG1, V domains shown, Humanized antibody from murine #23; also called #23-VH5-4/VL2-4) VH: QVQLVQSGAEVKKPGESLKISCKASGYNFNNYWMHWVRQRPGKGLEWIGMIHPNSGTFNYNERFKRKATLTVDKSISTAYLQWSSLKAEDTAMYYCAKSTALATDYWGQGTLVTVSS VL: QIVLTQSPSTLSASVGDRVTMTCSASSSVSYMYWYQQKPGKAPKLLIYDTSNLASGVPIRFSGSGSGTSYTLTISSMQPDDFVTYYCQQWSSYPLTFGQGTKLEIK"
value_type = "pKd"
val = 8.87

[[record]]
binder = "#27-2121 (VH2-1-VL2-1) (antibody, IgG1, V domains shown, Humanized antibody from murine #27; also called #27-VH2-1/VL2-1) VH: QVQLVQSGAEVVKPGASVKVSCKASGYTFTNYWMHWVRQAPGQGLEWMGMIHPNSGAFNYNERFKTRVTITVDKSTSTAYMELSSLRSEDTAVYYCARSTALATGYWGQGTLVTVSS VL: DIQLTQSPSFLSASVGDRVTITCSASSSVSYMYWYQQKPGKSPKLLIYDTSNLASGVPSRFSGSGSGTEYTLTISSLQPEDFATYYCQQWSSYPLTFGQGTKLEIK"
value_type = "pKd"
val = 8.85

